Assay: Cytotoxicity against african green monkey Vero cells after 24 hrs by MTT assay
Type: cell-based
Settings: chlorocebus sabaeus, Vero cells
Metric: log10 of CC50 at 24 h (log10 of the value in µM)
Transform log10 | Measure CC50 at 24 h | Unit µM

Some solved cases for reference:
COc1ccc(-n2c(SC(C)C(=O)Nc3nc(C)c(Br)cc3Br)nc3ccccc32)cc1 (racemic) | 0.99
COc1ccc(-n2c(SC(C)C(=O)Nc3ncc(C(F)(F)F)cc3Cl)nc3ccccc32)cc1 (racemic) | 0.96
CC(Sc1nc2ccccc2n1-c1ccc(F)cc1)C(=O)Nc1ncc(Cl)cc1Cl (racemic) | 0.77
CCOc1ccc(-n2c(SC(C)C(=O)Nc3ncc(Cl)cc3Cl)nc3ccccc32)cc1 (racemic) | 1.27
COc1ccc(-n2c(SC(C)C(=O)Nc3ncc(C)cc3Cl)nc3ccccc32)cc1 (racemic) | -0.06

Q: What does the data say about its log10 of CC50 at 24 h? Entry: COc1ccc(-n2c(SC(C)C(=O)Nc3nc(C)c(Cl)cc3Cl)nc3ccccc32)cc1 (racemic)
Ans: 0.86
